Listing: Epitope Bin of selected molecules
- subject-of-test: T1, Histidine-tagged DLL3 antigen (DLL3-His) (Homo sapiens, UniProt Q9NYJ7)
- T1 construct: corresponding to amino acids Ala27-Ala479 with a C-terminal 6×His tag; made in house; host or cells: HEK293T cells
- T1 sequence (Q9NYJ7 27-479): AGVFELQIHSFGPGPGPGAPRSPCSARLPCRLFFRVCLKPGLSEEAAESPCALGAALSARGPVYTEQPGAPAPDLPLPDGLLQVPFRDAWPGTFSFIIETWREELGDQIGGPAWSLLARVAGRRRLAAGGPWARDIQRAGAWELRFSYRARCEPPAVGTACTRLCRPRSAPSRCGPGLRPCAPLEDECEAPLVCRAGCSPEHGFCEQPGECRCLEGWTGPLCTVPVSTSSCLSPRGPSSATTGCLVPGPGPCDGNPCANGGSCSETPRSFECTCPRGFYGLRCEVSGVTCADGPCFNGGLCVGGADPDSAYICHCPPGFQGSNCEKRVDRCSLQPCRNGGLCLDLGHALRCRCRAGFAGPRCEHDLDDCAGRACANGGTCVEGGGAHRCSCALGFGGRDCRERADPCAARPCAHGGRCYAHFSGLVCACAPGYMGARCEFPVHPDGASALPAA
- test-name: Pairwise epitope binning on Carterra array SPR
- study-conditions: pairwise competition for binding to DLL3-His, antibodies immobilized on HC200M chip

INSERT INTO results (molecule, readout_type, result) VALUES
  ('L22: anti-DLL3 antibody, VH SEQ ID NO: 17, VL SEQ ID NO: 18 (antibody, V domains shown) VH: EVQLLESGGGLVQPGGSLRLSCAASGFTFSSYAMGWVRQTPGKGLEWVSTISGRGGDTYYADSVKGRFTISRDNSKNTLYLQMNSLRAEDTAIYYCAKERGLGFDYWGQGTLVTVSS VL: DIVMTQTPLSLPVTPGEPASISCRSSQSLLDSDDGNTYLDWYLQKPGQSPQLLIYTLSYRASGVPDRFSGSGSGTDFTLKISRVEAEDVGVYYCMQHLEFPLTFGGGTKVEIK', 'Epitope Bin', 8);

Now let's try a different one.
# return recorded Epitope Bin for entry A18: anti-DLL3 antibody, VH SEQ ID NO: 34, VL SEQ ID NO: 35 (antibody, V domains shown) VH: QVTLRESGPALVKSTQTLTLTCTFSGFSLSTSGMCVSWIRQTPGKALEWLALIDWDDNKYYSTSLKTRLIISKDTSKNQVVLTMTNMEPVDTATYYCARIRGYSGSYDAFDIWGQGTMVTVSS VL: DIVMTQSPLSLPVTPGEPASISCRSSQSLLHSNGYNYLDWYLQKPGQSPHILLYLGSNRAPGVPDRFSGSGSGTDFTLKISRVEAEDVGVYYCMQALQTPFTFGPGTKVDIK
6
